molecular target: T1, purified recombinant MHC II protein, allele DRB1*1501 (human); test: MHC II competition binding assay
T1 construct: bought from Benaroya Research Institute; also called MHC-II DR molecule
pIC50: −log10 of the molar value.

{"binder": "HLHFQRMVNSFGNPTAQ (synthetic mutated peptide of the lysostaphin catalytic domain; also called S124G) [cluster 5 peptide with Ser124Gly]", "pIC50": "> 8.00"}

These data points were gathered from patent US20210395713A1.
